TARGET_DESC: PDK-1 (Homo sapiens)
Sequence (O15530 1-556): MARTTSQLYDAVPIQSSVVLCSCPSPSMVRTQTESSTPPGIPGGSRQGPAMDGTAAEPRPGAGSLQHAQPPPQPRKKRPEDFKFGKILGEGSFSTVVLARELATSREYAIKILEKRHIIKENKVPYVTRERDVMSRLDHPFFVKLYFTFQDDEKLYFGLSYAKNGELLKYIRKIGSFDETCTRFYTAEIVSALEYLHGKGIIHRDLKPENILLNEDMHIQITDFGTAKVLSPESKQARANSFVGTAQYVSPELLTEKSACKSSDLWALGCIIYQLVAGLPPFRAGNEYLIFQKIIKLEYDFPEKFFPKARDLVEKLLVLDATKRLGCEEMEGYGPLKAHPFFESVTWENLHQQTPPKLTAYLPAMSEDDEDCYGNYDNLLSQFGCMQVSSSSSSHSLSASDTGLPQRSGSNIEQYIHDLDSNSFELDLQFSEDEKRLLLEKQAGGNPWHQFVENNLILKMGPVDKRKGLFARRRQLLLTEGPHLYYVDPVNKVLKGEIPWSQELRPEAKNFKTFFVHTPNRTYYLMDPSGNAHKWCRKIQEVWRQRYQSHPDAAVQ
METHOD: PDK-1 kinase inhibition ELISA assay (phosphorylation of His6-tagged SGK1 S422D by PDK-1)
Type: biochemical
SETTINGS: PDK-1 ELISA, Table 11; read-out: Average IC50
pIC50: −log10 of the molar value.
ENDPOINT: pIC50

P: COc1cc2ncc3c(N)nc(-c4cncc(Nc5ccccc5C(N)=O)c4)cc3c2cc1OC
Q: COc1cc2ncc3c(N)nc(-c4cncc(CCCN)c4)cc3c2cc1OC
R: COc1cc2ncc3c(N)nc(-c4cncc(Nc5ccccc5-c5ccccc5)c4)cc3c2cc1OC
Lab note: rank above entries, pIC50 ascending. List each label, following the requested order.
P, R, Q

---

TARGET_DESC: S6K (Homo sapiens)
Sequence (P23443 whole entry): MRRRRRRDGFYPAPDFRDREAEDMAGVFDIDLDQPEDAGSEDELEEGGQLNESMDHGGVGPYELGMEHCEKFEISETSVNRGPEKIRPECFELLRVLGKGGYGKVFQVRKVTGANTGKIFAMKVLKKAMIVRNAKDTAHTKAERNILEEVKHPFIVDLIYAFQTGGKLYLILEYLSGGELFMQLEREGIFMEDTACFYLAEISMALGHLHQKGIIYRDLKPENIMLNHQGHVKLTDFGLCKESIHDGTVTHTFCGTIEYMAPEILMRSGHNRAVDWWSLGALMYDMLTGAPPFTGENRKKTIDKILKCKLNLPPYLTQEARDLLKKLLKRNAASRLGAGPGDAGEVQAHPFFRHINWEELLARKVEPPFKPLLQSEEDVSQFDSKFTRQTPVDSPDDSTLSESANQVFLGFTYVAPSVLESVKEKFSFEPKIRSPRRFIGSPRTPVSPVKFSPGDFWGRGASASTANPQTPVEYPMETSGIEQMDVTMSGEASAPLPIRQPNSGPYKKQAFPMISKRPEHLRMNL
ENDPOINT: IC50 (nM)

Here is how some molecules turned out for IC50.
SMILES_TEXT: COc1cc2ncc3c(N)nc(-c4cncc(OC[C@@H](N)Cc5ccc(Cl)c(Cl)c5)c4)cc3c2cc1OC
MEASURED_NUMBER: 19
//
SMILES_TEXT: COc1cc2ncc3c(N)nc(-c4cncc(OC[C@@H](N)COCc5ccccc5)c4)cc3c2cc1OC
MEASURED_NUMBER: 60
//
SMILES_TEXT: COc1cc2ncc3c(N)nc(-c4cncc(OC[C@@H](N)Cc5cccc(Cl)c5)c4)cc3c2cc1OC
MEASURED_NUMBER: 76
//
SMILES_TEXT: COCCOc1cc2ncc3c(N)nc(-c4cncc(OC[C@@H](N)Cc5ccccc5)c4)cc3c2cc1OC
MEASURED_NUMBER: 34
//
SMILES_TEXT: COc1cc2ncc3c(N)nc(-c4cncc(OC[C@H](N)Cc5cccc(C(F)(F)F)c5)c4)cc3c2cc1OC
MEASURED_NUMBER: 763

I: COc1cc2ncc3c(N)nc(-c4cncc(OC[C@H](N)Cc5ccc(F)cc5)c4)cc3c2cc1OC
II: COc1cc2c(cc1OCCN1CCOCC1)ncc1c(N)nc(-n3ccnc3)cc12
III: COc1cc2ncc3c(N)nc(-c4cncc(OC[C@@H](N)CN5CCc6ccccc65)c4)cc3c2cc1OC
IV: CCOc1cc2ncc3c(N)nc(-n4ccnc4)cc3c2cc1N
Rank ascending by IC50. Lab note: final answer is the ordered label list.
III, I, II, IV

a: COCCOc1cc2ncc3c(N)nc(-n4ccnc4)cc3c2cc1OC
b: COc1cc2ncc3c(N)nc(-c4cncc(OC[C@H](N)Cc5c[nH]c6ccccc56)c4)cc3c2cc1OC
Kindly identify which of a and b has the larger recorded IC50 value. // return label of chosen record
a
(a: 1380 nM, b: 254 nM)

a: Nc1nc(-n2ccnc2)cc2c1cnc1cc(/C=C/CCN3CCCC3)ccc12
b: COc1cc2ncc3c(N)nc(-c4cncc(OC[C@@H](N)CN5CCc6ccccc6C5)c4)cc3c2cc1OC
Would you mind telling me which has the lower recorded IC50 between a and b ? # reply format: chosen label
b

---

TARGET_DESC: UniProt:P17612
METHOD: PKA kinase inhibition, Z'-LYTE FRET assay
Type: biochemical
SETTINGS: 20 μM ATP
pIC50: −log10 of the molar value.
Collected pIC50 values appear next to each entry.

Take a look at these entries with their results.
SMILES_TEXT: CCOc1cc2ncc3c(N)nc(-c4cccnc4)cc3c2cc1OCC
TARGET_DESC: UniProt:P17612
pIC50: < 4.70
--
SMILES_TEXT: COc1cc2ncc3c(N)nc(-c4cncc(OC[C@@H](N)Cc5ccc(O)cc5)c4)cc3c2cc1OC
TARGET_DESC: UniProt:P17612
pIC50: 6.40
--
SMILES_TEXT: CCSc1cc2ncc3c(N)nc(-c4cncc(OC[C@@H](N)Cc5ccccc5)c4)cc3c2cc1OC
TARGET_DESC: UniProt:P17612
pIC50: < 4.70

Moving on to the next compound.
Report the value of pIC50 obtained on UniProt:P17612 for "Nc1nc(-c2cncc(OC[C@@H](N)Cc3ccccc3)c2)cc2c1cnc1cc(/C=C/CCN3CCCC3)ccc12" .
> 7.49

---

Below is a list of entries, each paired with its recorded pIC50 value.
TARGET_DESC: PKA (Homo sapiens, UniProt P17612)
METHOD: PKA kinase inhibition, Z'-LYTE FRET assay
Assay type: biochemical
SETTINGS: 20 μM ATP
pIC50: −log10 of the molar value.

Example entries and their recorded answers appear below.
COMPOUND: COc1cc2ncc3c(N)nc(-c4cncc(OC[C@@H](N)Cc5ccc(Cl)c(Cl)c5)c4)cc3c2cc1OC [Ib-44]
ENDPOINT: pIC50
RESULT: > 7.49
//
COMPOUND: COCCOc1cc2ncc3c(N)nc(-n4ccnc4)cc3c2cc1OC [Ia-48]
ENDPOINT: pIC50
RESULT: < 4.70

Continue with the compound presented below.
Consider the compound COc1cc2ncc3c(N)nc(-c4cncc(OC[C@@H](N)CNc5cccc(F)c5)c4)cc3c2cc1OC [Ib-36] and give its recorded pIC50.
> 7.49

---

TARGET_DESC: PDK-1 (Homo sapiens, UniProt O15530)
Sequence (O15530 1-556): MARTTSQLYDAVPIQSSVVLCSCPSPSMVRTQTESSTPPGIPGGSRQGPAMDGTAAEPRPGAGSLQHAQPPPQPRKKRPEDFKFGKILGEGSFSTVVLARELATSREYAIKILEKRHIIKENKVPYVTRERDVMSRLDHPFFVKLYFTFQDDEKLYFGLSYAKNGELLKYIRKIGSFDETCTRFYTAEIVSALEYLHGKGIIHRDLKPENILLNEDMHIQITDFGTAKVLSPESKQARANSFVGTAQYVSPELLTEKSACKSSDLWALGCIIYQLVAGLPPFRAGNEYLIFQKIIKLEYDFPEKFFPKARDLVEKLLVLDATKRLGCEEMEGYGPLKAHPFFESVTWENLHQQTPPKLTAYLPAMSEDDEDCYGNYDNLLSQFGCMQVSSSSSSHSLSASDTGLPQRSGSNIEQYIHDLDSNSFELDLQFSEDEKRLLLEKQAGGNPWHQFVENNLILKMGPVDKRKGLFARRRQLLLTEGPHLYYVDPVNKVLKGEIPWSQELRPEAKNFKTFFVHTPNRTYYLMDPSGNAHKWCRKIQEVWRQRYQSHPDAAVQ
METHOD: PDK-1 kinase inhibition ELISA assay (phosphorylation of His6-tagged SGK1 S422D by PDK-1)
Format: biochemical
SETTINGS: PDK-1 ELISA, Table 11; read-out: Average IC50
ENDPOINT: IC50 (nM)

Worked cases, answers included:
SMILES_TEXT: COc1cc2ncc3c(N)nc(-c4cncc(OC[C@@H](N)Cc5cccc(C(F)(F)F)c5)c4)cc3c2cc1OC
TARGET_DESC: PDK-1 (Homo sapiens, UniProt O15530)
IC50 [nM]: 13
--
SMILES_TEXT: COc1cc2c(cc1OCCN1CCN(C)CC1)ncc1c(N)nc(-n3ccnc3)cc12
TARGET_DESC: PDK-1 (Homo sapiens, UniProt O15530)
IC50 [nM]: 1150
--
SMILES_TEXT: COc1cc2ncc3c(N)nc(-c4cncc(OC[C@@H](N)Cc5ccc(Cl)c(Cl)c5)c4)cc3c2cc1OC
TARGET_DESC: PDK-1 (Homo sapiens, UniProt O15530)
IC50 [nM]: 6
--
SMILES_TEXT: COc1cc2ncc3c(N)nc(-c4cncc(C#CCN)c4)cc3c2cc1OC
TARGET_DESC: PDK-1 (Homo sapiens, UniProt O15530)
IC50 [nM]: 53

A: COc1cc2c(cc1OCc1ccccc1)ncc1c(N)nc(-n3ccnc3)cc12
B: CCN(Cc1ccncc1)C[C@H](N)COc1cncc(-c2cc3c(cnc4cc(OC)c(OC)cc43)c(N)n2)c1
Among A and B , whose measured IC50 is the smaller figure? Your answer should be the label of the entry you select.
B

Data credit: patent US20080293712A1
